The measurements presented in this section are drawn from ChEMBL document CHEMBL3988442.

Target: Sialic acid-binding Ig-like lectin 9 (Homo sapiens)
Experiment: Hs-Siglec9 ALPHAscreen SOP 20170721
Design: scale not given: direction of the effect not stated beside the values
Conditions: 10 µM
quantity_measured: Percent Effect (%)
Output spec: scalar in %, unitless text.

Look over these answered cases.
1. CN(Cc1ccsc1)C(=O)CN1CCOC(Cn2cccn2)C1 (centres undefined) : -1.67
2. Cc1cc(CN(C)C(=O)NC2CCN(Cc3ccccc3)C2)no1 (centres undefined) : -5.79
3. CC(C)c1nnc2n1CCN(C(=O)c1ccnc(N(C)C)c1)C2 : 7.33

*Q* Data request, read-out Percent Effect, for CN(C)CC1CN(Cc2csc(C3CCCC3)n2)CCO1 (centres undefined)
*A* 9.69

*Q* Data request, read-out Percent Effect, for `COC[C@@]12CC[C@@H](N3CCOCC3)C[C@H]1CCN(c1ncccc1Cl)C2`
*A* 12.5

*Q* Data request, read-out Percent Effect, for CCCN(CCO)C(=O)C1CCC(=O)N(CCc2ccc(Cl)cc2)C1 (centres undefined)
*A* -2.89

*Q* Data request, read-out Percent Effect, for N#CCCN(CCC#N)C(=O)CN1CCCC1Cc1cccc(F)c1 (centres undefined)
*A* -7.53

*Q* Data request, read-out Percent Effect, for CCCC(C)C(=O)NCc1cn2cc(Br)ccc2n1 (centres undefined)
*A* 4.19

*Q* Data request, read-out Percent Effect, for `O=C(c1ccc(Br)o1)N1CCN(Cc2ccc(OC(F)(F)F)cc2)CC1`
*A* -16.1

*Q* Data request, read-out Percent Effect, for c1cnn(CC2CCCN2Cc2nc(-c3ccoc3)no2)c1 (centres undefined)
*A* 2.88

*Q* Data request, read-out Percent Effect, for `Cc1ccc(CN2CCCn3nnc(COCC4CC4)c3C2)s1`
*A* -6.88

*Q* Data request, read-out Percent Effect, for `Cc1ncsc1C(=O)NC1CCN(CC(=O)N(C)c2ccccc2)CC1`
*A* 6.55

*Q* Data request, read-out Percent Effect, for COc1c(C2CCCN2C(=O)c2cccc(C(N)=O)c2)c(C)nn1C (centres undefined)
*A* -11.9

*Q* Data request, read-out Percent Effect, for `O=C1COc2ccc(C(=O)NS(=O)(=O)c3ccc(F)cc3F)cc2N1`
*A* -2.06

*Q* Data request, read-out Percent Effect, for `Cn1cnc2c1CCN(Cc1cccc(OCC(N)=O)c1)C2`
*A* -8.42
